The values you see were collected from the Human Domainome abundance scans (Beltran et al. 2025).

B1: Lysine-specific demethylase 2B, residues 656 to 722; numbered along this chain, Q8NHM5 (parent)
chain: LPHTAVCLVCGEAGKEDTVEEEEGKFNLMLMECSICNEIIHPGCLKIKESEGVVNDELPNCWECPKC

variants of: B1; experiment: abundance fitness (aPCA) (normalised: wild type 0, dead -1); higher = more abundant; growth selection in yeast, the domain comes from the species named; conditions: Homo sapiens
Below, each entry is listed with its recorded abundance fitness.
// print number alone

L58A -0.454
E38C -0.291
K25C -0.329
G43H -0.433
G52H -0.086
I39L -0.125
G11T -0.354
V54S -0.284

Find the recorded abundance fitness belonging to `K25M` and report it.
-0.238

Find the recorded abundance fitness belonging to `L58V` and report it.
-0.036

Find the recorded abundance fitness belonging to `I39Q` and report it.
0.257

Find the recorded abundance fitness belonging to `E22N` and report it.
-0.162

Find the recorded abundance fitness belonging to `G24Q` and report it.
-0.123
